Entry source: patent US12522597B2

# Tested on: MDR1
# ASSAY METHOD TEXT: MDCK-MDR1 permeability assay (BBB penetration potential)
# Assay type: in vitro ADME
# RECORDED CONDITIONS: dog, MDCK-MDR1, pH 7.4, MDCK-MDR1: Efflux
EXPERIMENTAL ENDPOINT: efflux ratio at 120 min, 5 μM
Form rule: numeric answer, no unit written next to it.

COMPOUND: Oc1cc(-c2cn[nH]c2)ccc1-c1ccc(O[C@H]2C[C@@H]3CCC[C@@H](N3)[C@H]2F)nn1 (single isomer, unassigned)
SUBJECT OF TEST: MDR1
VALUE REPORTED: 19
//
COMPOUND: Cn1cnc2cc(O)c(-c3ccc(O[C@@H]4C[C@@]5(C)CCC[C@](C)(N5)[C@@H]4F)nn3)cc2c1=O (single isomer, unassigned)
SUBJECT OF TEST: MDR1
VALUE REPORTED: 12
//
COMPOUND: Cc1cc(-c2ccc(-c3ccc(O[C@H]4C[C@@H]5CCC[C@@H](N5)[C@H]4F)nn3)c(O)c2)cnn1 (single isomer, unassigned)
SUBJECT OF TEST: MDR1
VALUE REPORTED: 34

stdin: Which value of efflux ratio at 120 min, 5 μM has been reported for Oc1cc2cnccc2cc1-c1ccc(O[C@H]2C[C@@H]3CCC[C@@H](N3)[C@H]2F)nn1 (single isomer, unassigned) in the records?
stdout: 3

stdin: One more compound: Oc1cc(-n2ccnc2)ccc1-c1ccc(O[C@H]2C[C@@H]3CC[C@@H](N3)[C@H]2F)nn1 (single isomer, unassigned)
stdout: 5

* * *

# System: MDR1-MDCK cell monolayers
# ASSAY METHOD TEXT: MDCK-MDR1 permeability assay (BBB penetration potential)
# Assay type: in vitro ADME
# RECORDED CONDITIONS: dog, MDCK-MDR1, 120 min, 5 μM, pH 7.4
EXPERIMENTAL ENDPOINT: MDCK-MDR1: % Recov A-B (%)
The reply should be a number in %, with the unit left off.

COMPOUND: O=c1cc(-c2ccc(-c3ccc(O[C@@H]4C[C@H]5CCC[C@H](N5)[C@@H]4F)nn3)c(O)c2)cc[nH]1 (single isomer, unassigned)
EXPERIMENTAL ENDPOINT: MDCK-MDR1: % Recov A-B
VALUE REPORTED: 91
//
COMPOUND: Oc1cc2ccncc2cc1-c1ccc(O[C@H]2C[C@@H]3CCC[C@@H](N3)[C@H]2F)nn1 (single isomer, unassigned)
EXPERIMENTAL ENDPOINT: MDCK-MDR1: % Recov A-B
VALUE REPORTED: 69
//
COMPOUND: Oc1cc(-n2ccnn2)ccc1-c1ccc(O[C@@H]2C[C@H]3CCC[C@H](N3)[C@@H]2F)nn1 (single isomer, unassigned)
EXPERIMENTAL ENDPOINT: MDCK-MDR1: % Recov A-B
VALUE REPORTED: 89

Next, consider the following compound.
stdin: Which value of MDCK-MDR1: % Recov A-B has been reported for Oc1cc(-c2nncs2)ccc1-c1ccc(O[C@@H]2C[C@H]3CCC[C@H](N3)[C@@H]2F)nn1 (single isomer, unassigned) in the records?
stdout: 88

* * *

# Test system: MDR1-MDCK cell monolayers
# ASSAY METHOD TEXT: MDCK-MDR1 permeability assay (BBB penetration potential)
# Format: in vitro ADME
# RECORDED CONDITIONS: dog, MDCK-MDR1, 120 min, 5 μM, pH 7.4
If the reported MDCK-MDR1: % Recov B-A equals or exceeds 80%, assign Met. If not, assign Not met.

Sample answers from the record:
COMPOUND: Cn1cc(-c2cc(O)c(-c3ccc(O[C@@H]4CC5CC[C@H](N5)[C@@H]4F)nn3)cn2)cn1 (single isomer, unassigned) [63-ENT1]
CLASS LABEL: Met
//
COMPOUND: Cn1ccc2cc(-c3ccc(O[C@@H]4C[C@@]5(C)CCC[C@](C)(N5)[C@@H]4F)nn3)c(O)cc2c1=O (single isomer, unassigned) [156-ENT1]
CLASS LABEL: Met
//
COMPOUND: Cc1cc(-c2ccc(-c3ccc(O[C@@H]4C[C@H]5CCC[C@H](N5)[C@@H]4F)nn3)c(O)c2)cnn1 (single isomer, unassigned) [90-ENT1]
CLASS LABEL: Met

Next item in the queue.
stdin: Does MDCK-MDR1: % Recov B-A meet or surpass 80% for Cn1cc(-c2ccc(-c3ccc(O[C@@H]4C[C@@H]5CCC[C@@H](N5)[C@@H]4F)nn3)c(O)c2)cn1 (single isomer, unassigned) [122-ENT2] ?
stdout: Not met
